Recorded values, source patent US20260184693A1.

# target_under_test: human SLC6A19 (Homo sapiens, UniProt Q695T7)
# Construct: expressed in transfected cells
# Sequence (Q695T7 whole entry): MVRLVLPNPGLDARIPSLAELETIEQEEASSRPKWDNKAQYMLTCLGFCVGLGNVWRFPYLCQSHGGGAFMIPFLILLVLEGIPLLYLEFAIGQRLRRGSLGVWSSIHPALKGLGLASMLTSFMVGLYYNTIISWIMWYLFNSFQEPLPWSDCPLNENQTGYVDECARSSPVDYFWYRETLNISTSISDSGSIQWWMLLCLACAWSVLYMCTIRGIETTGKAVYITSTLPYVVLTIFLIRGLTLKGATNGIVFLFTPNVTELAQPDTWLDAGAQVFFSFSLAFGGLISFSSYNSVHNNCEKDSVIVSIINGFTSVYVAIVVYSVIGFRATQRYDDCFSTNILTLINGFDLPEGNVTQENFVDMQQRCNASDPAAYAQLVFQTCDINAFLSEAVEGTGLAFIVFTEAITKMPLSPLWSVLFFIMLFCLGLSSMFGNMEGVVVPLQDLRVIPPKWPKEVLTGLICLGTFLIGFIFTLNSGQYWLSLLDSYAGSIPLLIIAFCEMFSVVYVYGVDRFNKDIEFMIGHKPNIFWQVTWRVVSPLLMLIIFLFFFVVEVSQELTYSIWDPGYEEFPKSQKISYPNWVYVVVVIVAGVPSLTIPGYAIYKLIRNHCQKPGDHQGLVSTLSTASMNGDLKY
# Sequence (Q9HBJ8 15-222 partner): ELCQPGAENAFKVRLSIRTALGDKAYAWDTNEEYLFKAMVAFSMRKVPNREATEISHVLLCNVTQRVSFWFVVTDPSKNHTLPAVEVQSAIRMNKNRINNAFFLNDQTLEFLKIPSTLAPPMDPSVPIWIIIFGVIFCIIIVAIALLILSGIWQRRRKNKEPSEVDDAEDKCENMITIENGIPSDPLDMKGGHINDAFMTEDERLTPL
# procedure_text: Example B2: 13C6,15N-isoleucine uptake, RapidFire mass spectrometry, in CHO cells with doxycycline-inducible expression of human SLC6A19 and TMEM27
# Assay type: cell-based
# stated_conditions: read-out: SLC6A19_RapidFire Uptake Assay IC50
Entries and their measured IC50 follow.
value_kind: IC50 (nM)

{"compound": "CN(C(=O)NCc1cc2cc(Cl)ccc2[nH]1)[C@@H]1CCCN(C(=O)c2onc3ccccc23)C1", "value_kind": "IC50", "reading_unit": "nM", "bound_sign": ">", "recorded_number": 2810}
{"compound": "CC(=O)N1C[C@@H](N(C)C(=O)NCc2cc3cc(Cl)ccc3[nH]2)CC[C@H]1C (single isomer, unassigned)", "value_kind": "IC50", "reading_unit": "nM", "bound_sign": ">", "recorded_number": 50000}
{"compound": "CN(C(=O)NCc1cc2cc(Cl)ccc2[nH]1)[C@@H]1CCCN(C(=O)Cc2ccccn2)C1", "value_kind": "IC50", "reading_unit": "nM", "bound_sign": "=", "recorded_number": 417}
{"compound": "CCC(=O)N1CCC[C@@H](N(C)C(=O)NCc2cc3cc(Cl)ccc3[nH]2)C1", "value_kind": "IC50", "reading_unit": "nM", "bound_sign": "=", "recorded_number": 125}
{"compound": "CN(C(=O)NCc1cc2cc(Cl)ccc2[nH]1)[C@@H]1CCCN(C(=O)c2ccn[nH]2)C1", "value_kind": "IC50", "reading_unit": "nM", "bound_sign": "=", "recorded_number": 312}
{"compound": "CC(=O)N1CCC[C@@H](N(C)C(=O)NCc2ccc3c(C)c[nH]c3c2)C1", "value_kind": "IC50", "reading_unit": "nM", "bound_sign": "=", "recorded_number": 4670}
{"compound": "CN(C(=O)NCc1cc2cc(Cl)ccc2[nH]1)[C@@H]1CCCN(C(=O)Cc2ccncc2)C1", "value_kind": "IC50", "reading_unit": "nM", "bound_sign": "=", "recorded_number": 947}
{"compound": "CN(C(=O)NCc1cc2cc(Cl)ccc2[nH]1)[C@@H]1CCCN(C(=O)C2CCCCO2)C1 (some centres unmarked)", "value_kind": "IC50", "reading_unit": "nM", "bound_sign": "=", "recorded_number": 1630}
{"compound": "CN(C(=O)NCc1cc2cc(Cl)ccc2[nH]1)[C@@H]1CCCN(C(=O)C2CC2(F)F)C1 (some centres unmarked)", "value_kind": "IC50", "reading_unit": "nM", "bound_sign": "=", "recorded_number": 484}
{"compound": "CN(C(=O)NCc1cc2cc(Cl)ccc2[nH]1)[C@@H]1CCCN(C(=O)C2COCCN2)C1 (some centres unmarked)", "value_kind": "IC50", "reading_unit": "nM", "bound_sign": ">", "recorded_number": 7640}
{"compound": "CN(C(=O)NCc1cc2cc(Cl)ccc2[nH]1)[C@@H]1CCCN(C(=O)c2ncnn2C)C1", "value_kind": "IC50", "reading_unit": "nM", "bound_sign": ">", "recorded_number": 23400}
